Reference source: the supplement of paper PMC10567573

Overview of recorded protein stability index for various variants
B1: MCOLN1 (parent)
chain: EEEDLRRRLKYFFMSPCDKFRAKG

# Variants of: B1
# assaySummary: protein stability index of a GFP-peptide fusion (GPS, HEK-293T) (PSI 1-6); higher = more stable;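 further: lentivirally expressed fusions sorted by FACS into six bins by GFP to DsRed ratio, PSI derived from sequencing read proportions per bin multiplied by bin number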
# conditions: c terminus: a fixed tail appended
resultType: protein stability index

mutationList: C17D
observedResult: 3.08
--
mutationList: D4P
observedResult: 2.94
--
mutationList: K19Q
observedResult: 2.73
--
mutationList: G24I
observedResult: 2.37
--
mutationList: K19Y
observedResult: 2.75
